Origin of the recorded values: patent US11066363B2

# Target Entity: EML4-ALK^WT transformed Ba/F3 cells (Homo sapiens, UniProt Q9UM73)
# Sequence (Q9UM73 19-1620 limits assumed, change not shown): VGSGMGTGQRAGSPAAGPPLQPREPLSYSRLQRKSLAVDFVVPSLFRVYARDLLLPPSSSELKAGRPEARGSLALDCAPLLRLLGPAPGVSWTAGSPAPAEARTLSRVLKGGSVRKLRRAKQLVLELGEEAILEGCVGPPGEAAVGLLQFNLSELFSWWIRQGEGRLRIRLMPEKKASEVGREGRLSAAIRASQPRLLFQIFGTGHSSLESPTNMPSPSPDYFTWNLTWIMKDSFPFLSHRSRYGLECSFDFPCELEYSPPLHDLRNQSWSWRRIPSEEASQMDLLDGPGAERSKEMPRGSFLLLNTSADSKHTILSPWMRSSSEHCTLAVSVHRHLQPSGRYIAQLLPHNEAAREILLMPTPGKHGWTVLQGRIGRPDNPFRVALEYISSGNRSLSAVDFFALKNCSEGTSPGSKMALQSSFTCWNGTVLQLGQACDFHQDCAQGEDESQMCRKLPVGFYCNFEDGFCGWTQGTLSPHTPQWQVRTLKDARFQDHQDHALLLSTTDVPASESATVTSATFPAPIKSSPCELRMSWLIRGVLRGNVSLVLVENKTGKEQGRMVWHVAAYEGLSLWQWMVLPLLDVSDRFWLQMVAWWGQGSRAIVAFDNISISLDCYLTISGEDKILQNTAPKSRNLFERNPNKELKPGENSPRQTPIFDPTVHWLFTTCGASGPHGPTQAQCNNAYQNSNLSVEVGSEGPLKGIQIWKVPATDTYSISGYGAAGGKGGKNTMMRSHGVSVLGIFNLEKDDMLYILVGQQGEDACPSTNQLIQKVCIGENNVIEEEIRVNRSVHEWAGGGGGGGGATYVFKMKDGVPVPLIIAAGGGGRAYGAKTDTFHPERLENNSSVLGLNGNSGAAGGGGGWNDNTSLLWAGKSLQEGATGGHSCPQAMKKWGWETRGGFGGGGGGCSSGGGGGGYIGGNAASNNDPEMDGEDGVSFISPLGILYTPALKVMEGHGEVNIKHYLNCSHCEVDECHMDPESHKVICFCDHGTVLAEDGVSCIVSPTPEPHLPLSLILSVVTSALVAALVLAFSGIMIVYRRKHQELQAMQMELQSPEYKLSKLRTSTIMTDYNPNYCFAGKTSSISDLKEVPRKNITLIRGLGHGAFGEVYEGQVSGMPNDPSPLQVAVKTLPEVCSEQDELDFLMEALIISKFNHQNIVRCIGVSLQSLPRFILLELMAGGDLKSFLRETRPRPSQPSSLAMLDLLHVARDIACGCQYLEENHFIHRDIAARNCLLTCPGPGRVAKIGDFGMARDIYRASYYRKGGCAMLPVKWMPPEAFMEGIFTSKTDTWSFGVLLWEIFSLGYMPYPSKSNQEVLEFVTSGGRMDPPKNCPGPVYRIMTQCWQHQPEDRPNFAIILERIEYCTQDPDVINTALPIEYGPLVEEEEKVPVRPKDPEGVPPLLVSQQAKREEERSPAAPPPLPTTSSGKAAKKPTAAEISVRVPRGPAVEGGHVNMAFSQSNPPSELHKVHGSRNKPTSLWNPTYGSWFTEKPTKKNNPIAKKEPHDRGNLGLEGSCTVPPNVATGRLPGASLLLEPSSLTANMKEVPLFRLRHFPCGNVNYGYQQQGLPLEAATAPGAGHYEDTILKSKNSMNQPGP
# Procedure Text: Ba/F3 dose escalation MTS viability assay
# Measurement Setup: read-out: IC50 wt, 72 hours
pIC50: −log10 of the molar value.
Entries and their pIC50 values follow.

# Query Smiles, pIC50
measured = [
    ("CCc1cc2c(cc1-c1cnn[nH]1)C(C)(C)c1[nH]c3cc(C#N)ccc3c1C2=O", 6.94),
    ("CCc1cc2c(cc1-c1cnoc1)C(C)(C)c1[nH]c3cc(C#N)ccc3c1C2=O", 7.23),
    ("CCc1cc2c(cc1-c1cnn(CCN(C)C)c1)C(C)(C)c1[nH]c3cc(C#N)ccc3c1C2=O", 8.70),
    ("CCc1cc2c(cc1N1CCC(N(C)C)CC1)C(C)(C)c1[nH]c3cc(C#N)ccc3c1C2=O", 8.70),
]

###

# Target Entity: del19EGFR transduced Ba/F3 cells (Homo sapiens, UniProt P00533, cells depend on it, form not given)
# Sequence (P00533 25-1210 limits assumed, stated change not applied): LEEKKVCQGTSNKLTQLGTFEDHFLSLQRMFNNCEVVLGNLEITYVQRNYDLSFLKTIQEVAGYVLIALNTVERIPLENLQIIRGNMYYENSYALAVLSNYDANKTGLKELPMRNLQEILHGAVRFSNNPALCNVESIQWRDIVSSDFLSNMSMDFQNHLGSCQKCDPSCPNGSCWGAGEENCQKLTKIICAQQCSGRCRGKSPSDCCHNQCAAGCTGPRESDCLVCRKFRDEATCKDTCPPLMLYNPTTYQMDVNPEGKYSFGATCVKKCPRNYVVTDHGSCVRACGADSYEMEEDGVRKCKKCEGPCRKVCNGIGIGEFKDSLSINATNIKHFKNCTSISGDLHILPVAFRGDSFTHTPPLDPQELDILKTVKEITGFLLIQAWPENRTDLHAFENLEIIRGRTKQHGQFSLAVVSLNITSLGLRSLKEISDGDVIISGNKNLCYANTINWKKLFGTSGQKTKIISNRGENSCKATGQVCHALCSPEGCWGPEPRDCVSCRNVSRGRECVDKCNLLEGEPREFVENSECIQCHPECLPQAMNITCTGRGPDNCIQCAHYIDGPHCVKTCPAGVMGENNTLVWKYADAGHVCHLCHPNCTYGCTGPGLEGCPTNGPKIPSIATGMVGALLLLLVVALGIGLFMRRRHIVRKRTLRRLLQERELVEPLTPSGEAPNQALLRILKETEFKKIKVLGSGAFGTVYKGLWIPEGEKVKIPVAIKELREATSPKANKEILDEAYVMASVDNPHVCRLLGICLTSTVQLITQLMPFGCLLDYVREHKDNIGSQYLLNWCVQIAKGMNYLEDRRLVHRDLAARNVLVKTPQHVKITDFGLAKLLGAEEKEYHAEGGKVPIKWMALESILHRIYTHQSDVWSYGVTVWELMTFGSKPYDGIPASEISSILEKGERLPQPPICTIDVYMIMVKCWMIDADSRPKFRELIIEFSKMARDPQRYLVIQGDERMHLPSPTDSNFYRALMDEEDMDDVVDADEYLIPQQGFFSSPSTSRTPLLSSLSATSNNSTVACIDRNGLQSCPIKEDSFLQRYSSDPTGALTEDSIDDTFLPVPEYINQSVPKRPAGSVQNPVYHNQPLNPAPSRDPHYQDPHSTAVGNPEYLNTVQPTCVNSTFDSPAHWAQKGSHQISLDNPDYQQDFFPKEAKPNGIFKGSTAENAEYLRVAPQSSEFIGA
# Procedure Text: Ba/F3 proliferation assay
# Measurement Setup: read-out: IC50 Ba/F3 del19EGFR; Table 6
pIC50: −log10 of the molar value.
Property: pIC50

# Query Smiles, Property, Number
rows = [
    ("CCc1cc2c(cc1-c1cnn(CC(=O)N(C)C)c1)C(C)(C)c1[nH]c3cc(C#N)ccc3c1C2=O", "pIC50", 6.55),
]

###

# Target Entity: CD74-ROS transduced Ba/F3 cells (Homo sapiens)
# Procedure Text: Ba/F3 proliferation assay
# Measurement Setup: read-out: IC50 Ba/F3 CD74-ROS; Table 6
pIC50: −log10 of the molar value.
Property: pIC50

# Compound, Property, Number
records = [
    ("CCc1cc2c(cc1-c1cnn(CC(=O)N(C)C)c1)C(C)(C)c1[nH]c3cc(C#N)ccc3c1C2=O [Compound 6]", "pIC50", 6.17),
]

###

# Target Entity: EML4-ALK L1196M transformed Ba/F3 cells (Homo sapiens, UniProt Q9UM73, L1196M, cells depend on it)
# Procedure Text: Ba/F3 dose escalation MTS viability assay
# Measurement Setup: read-out: IC50 L1196M, 72 hours
Entries and their IC50 values follow.

# Compound, Units Text, IC50
records = [
    ("CCc1cc2c(cc1-c1cnn[nH]1)C(C)(C)c1[nH]c3cc(C#N)ccc3c1C2=O [Compound 13]", "nM", 629),
    ("CCc1cc2c(cc1-c1cnn(CCN(C)C)c1)C(C)(C)c1[nH]c3cc(C#N)ccc3c1C2=O [Compound 31]", "nM", 80),
    ("CCc1cc2c(cc1-c1cnoc1)C(C)(C)c1[nH]c3cc(C#N)ccc3c1C2=O [Compound 10]", "nM", 634),
    ("CCc1cc2c(cc1N1CCC(N(C)C)CC1)C(C)(C)c1[nH]c3cc(C#N)ccc3c1C2=O [Compound 17]", "nM", 10),
]

###

# Target Entity: EML4-ALK S1206Y transformed Ba/F3 cells (Homo sapiens, UniProt Q9UM73, S1206Y, cells depend on it)
# Sequence (Q9UM73 19-1620 S1206Y limits assumed): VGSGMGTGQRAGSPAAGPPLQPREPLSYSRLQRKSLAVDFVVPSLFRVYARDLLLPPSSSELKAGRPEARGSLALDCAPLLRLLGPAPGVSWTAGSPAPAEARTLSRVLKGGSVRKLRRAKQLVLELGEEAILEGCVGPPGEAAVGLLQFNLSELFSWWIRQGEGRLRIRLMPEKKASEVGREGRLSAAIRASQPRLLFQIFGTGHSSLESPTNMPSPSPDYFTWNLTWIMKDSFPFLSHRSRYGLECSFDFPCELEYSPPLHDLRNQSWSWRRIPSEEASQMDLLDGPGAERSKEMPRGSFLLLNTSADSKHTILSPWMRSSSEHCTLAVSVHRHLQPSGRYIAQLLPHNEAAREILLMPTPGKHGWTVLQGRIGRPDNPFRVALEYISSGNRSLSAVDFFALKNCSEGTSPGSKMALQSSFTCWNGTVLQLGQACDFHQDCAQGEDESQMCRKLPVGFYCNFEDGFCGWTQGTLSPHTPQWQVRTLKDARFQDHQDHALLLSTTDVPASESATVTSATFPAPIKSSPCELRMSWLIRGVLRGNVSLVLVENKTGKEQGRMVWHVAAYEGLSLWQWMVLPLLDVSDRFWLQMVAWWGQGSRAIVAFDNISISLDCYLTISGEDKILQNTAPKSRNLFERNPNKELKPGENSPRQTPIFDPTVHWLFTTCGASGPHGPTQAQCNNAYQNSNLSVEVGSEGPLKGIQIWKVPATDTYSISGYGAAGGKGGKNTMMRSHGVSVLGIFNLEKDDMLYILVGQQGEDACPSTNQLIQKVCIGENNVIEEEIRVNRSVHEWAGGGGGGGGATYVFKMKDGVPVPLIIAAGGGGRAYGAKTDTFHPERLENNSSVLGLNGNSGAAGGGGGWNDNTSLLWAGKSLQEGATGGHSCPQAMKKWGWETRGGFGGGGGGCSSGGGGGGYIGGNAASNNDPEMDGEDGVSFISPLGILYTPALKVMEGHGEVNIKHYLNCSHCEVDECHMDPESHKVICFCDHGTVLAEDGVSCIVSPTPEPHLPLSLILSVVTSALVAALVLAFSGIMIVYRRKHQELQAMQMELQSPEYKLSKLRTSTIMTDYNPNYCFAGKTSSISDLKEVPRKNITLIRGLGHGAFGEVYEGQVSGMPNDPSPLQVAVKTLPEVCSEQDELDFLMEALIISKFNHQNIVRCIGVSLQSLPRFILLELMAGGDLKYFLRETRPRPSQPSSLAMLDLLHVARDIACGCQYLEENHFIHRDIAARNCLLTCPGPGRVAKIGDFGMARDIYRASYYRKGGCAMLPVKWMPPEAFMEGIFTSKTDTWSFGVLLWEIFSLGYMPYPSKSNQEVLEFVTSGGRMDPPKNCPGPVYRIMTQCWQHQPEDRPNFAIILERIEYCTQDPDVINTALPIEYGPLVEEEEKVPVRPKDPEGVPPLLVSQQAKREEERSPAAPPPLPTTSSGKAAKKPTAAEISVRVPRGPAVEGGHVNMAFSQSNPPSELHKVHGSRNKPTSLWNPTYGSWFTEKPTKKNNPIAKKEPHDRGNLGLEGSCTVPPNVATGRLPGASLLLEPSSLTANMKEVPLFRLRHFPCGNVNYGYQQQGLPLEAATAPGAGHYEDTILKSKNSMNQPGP
# Procedure Text: Ba/F3 dose escalation MTS viability assay
# Measurement Setup: 72 hours
Entries and their IC50 values follow.

# Query Smiles, IC50
data = [
    ("CCc1cc2c(cc1-c1cnn[nH]1)C(C)(C)c1[nH]c3cc(C#N)ccc3c1C2=O", "1610 nM"),
    ("CCc1cc2c(cc1-c1cnoc1)C(C)(C)c1[nH]c3cc(C#N)ccc3c1C2=O", "728 nM"),
    ("CCc1cc2c(cc1-c1cnn(CCN(C)C)c1)C(C)(C)c1[nH]c3cc(C#N)ccc3c1C2=O", "6 nM"),
    ("CCc1cc2c(cc1N1CCC(N(C)C)CC1)C(C)(C)c1[nH]c3cc(C#N)ccc3c1C2=O", "2 nM"),
]

###

# Test system: EML4-ALK^G1202R transformed Ba/F3 cells
# Procedure Text: Ba/F3 single point inhibition assay (MTS)
# Type: cell-based
# Measurement Setup: single dose 1 μM, 72 hours
Property: Percent viability of untreated control, G1202R (%)

# Query Smiles, Units Text, Number
records = [
    ("CCc1cc2c(cc1-c1cnn(C(C)(C)C(=O)N(C)C)c1)C(C)(C)c1[nH]c3cc(C#N)ccc3c1C2=O", "%", 0),
    ("CCc1cc2c(cc1-c1cc[nH]n1)C(C)(C)c1[nH]c3cc(C#N)ccc3c1C2=O", "%", 1),
    ("CCc1cc2c(cc1N(C)CCN(C)C)C(C)(C)c1[nH]c3cc(C#N)ccc3c1C2=O", "%", 7),
    ("CCc1cc2c(cc1C#N)C(C)(C)c1[nH]c3cc(C#N)ccc3c1C2=O", "%", 28),
    ("CCc1cc2c(cc1-c1ccoc1)C(C)(C)c1[nH]c3cc(C#N)ccc3c1C2=O", "%", 8),
    ("CCc1cc2c(cc1-c1cnn(CC(=O)NC)c1)C(C)(C)c1[nH]c3cc(C#N)ccc3c1C2=O", "%", 0),
    ("CCc1cc2c(cc1N1CCNCC1)C(C)(C)c1[nH]c3cc(C#N)ccc3c1C2=O", "%", 7),
    ("CCc1cc2c(cc1-c1ccncc1)C(C)(C)c1[nH]c3cc(C#N)ccc3c1C2=O", "%", 5),
    ("CCc1cc2c(cc1-c1cnn[nH]1)C(C)(C)c1[nH]c3cc(C#N)ccc3c1C2=O", "%", 7),
    ("CCc1cc2c(cc1-c1cccs1)C(C)(C)c1[nH]c3cc(C#N)ccc3c1C2=O", "%", 10),
    ("CCc1cc2c(cc1-c1cnn(C)c1)C(C)(C)c1[nH]c3cc(C#N)ccc3c1C2=O", "%", 1),
    ("CCc1cc2c(cc1-c1cnn(CCCN(C)C)c1)C(C)(C)c1[nH]c3cc(C#N)ccc3c1C2=O", "%", 0),
    ("CCc1cc2c(cc1-c1cnn(CCN(C)C)c1)C(C)(C)c1[nH]c3cc(C#N)ccc3c1C2=O", "%", 1),
    ("CCc1cc2c(cc1[C@@H](O)CO)C(C)(C)c1[nH]c3cc(C#N)ccc3c1C2=O", "%", 39),
    ("CCc1cc2c(cc1N1CCN(C)CC1)C(C)(C)c1[nH]c3cc(C#N)ccc3c1C2=O", "%", 0.1),
    ("CCc1cc2c(cc1-c1cn[nH]c1)C(C)(C)c1[nH]c3cc(C#N)ccc3c1C2=O", "%", 1),
]

###

# Test system: EML4-ALK^G1202R transformed Ba/F3 cells
# Procedure Text: Ba/F3 single point inhibition assay (MTS)
# Type: cell-based
# Measurement Setup: single dose 1 μM, 72 hours
Quick rule for you: Percent viability of untreated control, G1202R under 4% gets YES, anything else gets NO.

# Query Smiles, Label
data = [
    ("CCc1cc2c(cc1-c1cccnc1)C(C)(C)c1[nH]c3cc(C#N)ccc3c1C2=O", "YES"),
    ("CCc1cc2c(cc1-c1cnn(C(=O)N(C)C)c1)C(C)(C)c1[nH]c3cc(C#N)ccc3c1C2=O", "YES"),
    ("CCc1cc2c(cc1N1CCC(N(C)C)CC1)C(C)(C)c1[nH]c3cc(C#N)ccc3c1C2=O", "NO"),
    ("CCc1cc2c(cc1-c1cnoc1)C(C)(C)c1[nH]c3cc(C#N)ccc3c1C2=O", "YES"),
    ("CCc1cc2c(cc1C(=O)O)C(C)(C)c1[nH]c3cc(C#N)ccc3c1C2=O", "NO"),
    ("CCc1cc2c(cc1/C=C/CN1CCOCC1)C(C)(C)c1[nH]c3cc(C#N)ccc3c1C2=O", "NO"),
    ("CCc1cc2c(cc1-c1ccc(N)nc1)C(C)(C)c1[nH]c3cc(C#N)ccc3c1C2=O", "NO"),
    ("CCc1cc2c(cc1-c1ccc(O)nc1)C(C)(C)c1[nH]c3cc(C#N)ccc3c1C2=O", "NO"),
]

###

# Target Entity: SRPK1 (Homo sapiens (Human), UniProt Q96SB4)
# Sequence (Q96SB4 whole entry): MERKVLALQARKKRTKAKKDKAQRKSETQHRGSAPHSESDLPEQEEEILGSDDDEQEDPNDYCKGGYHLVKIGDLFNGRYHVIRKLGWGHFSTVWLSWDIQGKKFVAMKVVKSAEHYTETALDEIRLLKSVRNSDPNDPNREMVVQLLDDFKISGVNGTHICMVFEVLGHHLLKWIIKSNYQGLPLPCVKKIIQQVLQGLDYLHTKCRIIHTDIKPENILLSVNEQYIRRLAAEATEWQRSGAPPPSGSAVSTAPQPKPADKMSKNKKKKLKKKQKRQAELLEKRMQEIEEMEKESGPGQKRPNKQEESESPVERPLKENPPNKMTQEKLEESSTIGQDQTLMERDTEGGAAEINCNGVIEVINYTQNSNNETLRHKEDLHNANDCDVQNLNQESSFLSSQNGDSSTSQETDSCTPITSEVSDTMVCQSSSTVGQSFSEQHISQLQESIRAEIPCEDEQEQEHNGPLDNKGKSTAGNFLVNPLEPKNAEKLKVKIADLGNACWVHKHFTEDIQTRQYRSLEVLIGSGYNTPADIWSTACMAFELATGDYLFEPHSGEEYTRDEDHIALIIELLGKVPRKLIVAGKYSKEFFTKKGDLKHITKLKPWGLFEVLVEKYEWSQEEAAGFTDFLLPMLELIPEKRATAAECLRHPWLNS
# Procedure Text: SRPK1 inhibitory activity
# Assay type: biochemical
Property: IC50 (nM)

# Query Smiles, Property, Comparison Operator, Number
data = [
    ("CCc1cc2c(cc1-c1cnn(C(=O)N(C)C)c1)C(C)(C)c1[nH]c3cc(C#N)ccc3c1C2=O", "IC50", "=", 4.75),
    ("CCc1cc2c(cc1N1CCC(N(C)C)CC1)C(C)(C)c1[nH]c3cc(C#N)ccc3c1C2=O", "IC50", ">", 1000),
    ("CCc1cc2c(cc1-c1ccncc1)C(C)(C)c1[nH]c3cc(C#N)ccc3c1C2=O", "IC50", "=", 2.61),
    ("CCc1cc2c(cc1-c1cnoc1)C(C)(C)c1[nH]c3cc(C#N)ccc3c1C2=O", "IC50", "=", 5.09),
    ("CCc1cc2c(cc1N1CCC(N3CCOCC3)CC1)C(C)(C)c1[nH]c3cc(C#N)ccc3c1C2=O", "IC50", "=", 11),
    ("CCc1cc2c(cc1-c1ccc(S(=O)(=O)F)cc1)C(C)(C)c1[nH]c3cc(C#N)ccc3c1C2=O", "IC50", "=", 41),
    ("CCc1cc2c(cc1-c1cnn[nH]1)C(C)(C)c1[nH]c3cc(C#N)ccc3c1C2=O", "IC50", "=", 0.884),
    ("CCc1cc2c(cc1-c1cc[nH]n1)C(C)(C)c1[nH]c3cc(C#N)ccc3c1C2=O", "IC50", "=", 1.15),
    ("CCc1cc2c(cc1-c1cnn(CCN(C)C)c1)C(C)(C)c1[nH]c3cc(C#N)ccc3c1C2=O", "IC50", "=", 1.91),
    ("CCc1cc2c(cc1N1CCN(C)CC1)C(C)(C)c1[nH]c3cc(C#N)ccc3c1C2=O", "IC50", "=", 2.66),
    ("CCc1cc2c(cc1-c1cnn(C)c1)C(C)(C)c1[nH]c3cc(C#N)ccc3c1C2=O", "IC50", "=", 3.01),
    ("CCc1cc2c(cc1-c1cncnc1)C(C)(C)c1[nH]c3cc(C#N)ccc3c1C2=O", "IC50", "=", 2.53),
]
